Molecular target: human μ-opiate receptor (Homo sapiens)
Construct: purchased PerkinElmer Life Sciences, Zaventem, Belgium RB-HOM; host or cells: CHO-K1 cells (recombinant expression; membrane preparation)
Assay: Affinity for the human μ-opiate receptor ([3H]-naloxone displacement, SPA)
Conditions: Table 2, Examples 11-161; test substance 1 μmole/l; inhibition of specific [3H]-naloxone binding; CHO-K1 membranes; read-out: μ-Opioid receptor, % inhibition [1 μM]
So basically: inhibition at 1 µM at 90% or higher? That is 1. Lower than 90%? That is 0.

Sample answers from the record:
COC(=O)CCC1(C(=O)OC)N=CN(Cc2ccccc2)C1C1CCC(C(c2cccc(F)c2)N(C)C)CC1 (stereo not drawn) [Example 95]: 1
COC(=O)C1(CSC)N=CN(Cc2ccccc2)C1C1CCC(C(c2cccc(F)c2)N(C)C)CC1 (stereo not drawn) [Example 96]: 1
CCCN1C=NC(CCC(=O)OC)(C(=O)OC)C1CC1CCC(C(CCc2ccccc2)N(C)C)CC1 (stereo not drawn) [Example 71]: 0
CCCC1(C(=O)OC)N=CN(CCc2ccccc2)C1CC1CCC(C(CCc2ccccc2)N(C)C)CC1 (stereo not drawn) [Example 135]: 0
CCCCN1C=NC(C)(C(=O)OC)C1CC1CCC(C(c2cccc(F)c2)N(C)C)CC1 (stereo not drawn) [Example 124]: 1

Query: Textbook exercise: given the entry CCCC1(C(=O)OC)N=CN(Cc2ccccc2)C1CC1CCC(C(c2cccc(F)c2)N(C)C)CC1 (stereo not drawn) [Example 138] , state whether its inhibition at 1 µM is greater than or equal to 90%.
Response: 1

Query: I'd appreciate it if you could say whether CCCN1C=NC(CCSC)(C(=O)OC)C1CC1CCC(C(CCc2ccccc2)N(C)C)CC1 (stereo not drawn) [Example 121] has inhibition at 1 µM at least equal to 90%.
Response: 0

Query: Is reported inhibition at 1 µM greater than or equal to 90% here: CCCN1C=NC(CSCc2ccccc2)(C(=O)OC)C1C1CCC(C(c2cccc(F)c2)N(C)C)CC1 (stereo not drawn) [Example 58]
Response: 0

Query: Decide: is the reported value of inhibition at 1 µM for COC(=O)C1(CC(C)C)N=CN(Cc2ccccc2)C1CC1CCC(C(c2ccc(Cl)cc2)N(C)C)CC1 (stereo not drawn) [Example 50] equal to or greater than 90%?
Response: 1

Query: Confirm if inhibition at 1 µM reported for the compound COC(=O)C1(CC(C)C)N=CN(CCc2ccccc2)C1CC1CCC(C(c2ccc(Cl)cc2)N(C)C)CC1 (stereo not drawn) [Example 43] is 90% or above.
Response: 1

Query: Decide: inhibition at 1 µM of COC(=O)C1(Cc2ccc(Cl)cc2)N=CN(C2CCCCC2)C1C1CCC(C(c2cccc(F)c2)N(C)C)CC1 (stereo not drawn) [Example 12] >= 90%?
Response: 0

Query: Determine whether measured inhibition at 1 µM meets or exceeds 90% for CCCCN1C=NC(CSCc2ccccc2)(C(=O)OC)C1C1CCC(C(c2ccc(Cl)cc2)N(C)C)CC1 (stereo not drawn) [Example 69]
Response: 1

Query: Could you tell me if the measured inhibition at 1 µM of CCCCN1C=NC(CCC(=O)OC)(C(=O)OC)C1CC1CCC(C(CCc2ccccc2)N(C)C)CC1 (stereo not drawn) [Example 78] reaches 90% or more?
Response: 0

----------
Biological target: human μ-opiate receptor (Homo sapiens, UniProt P35372)
Construct: purchased PerkinElmer Life Sciences, Zaventem, Belgium RB-HOM; host or cells: CHO-K1 cells (recombinant expression; membrane preparation)
Sequence (P35372 whole entry): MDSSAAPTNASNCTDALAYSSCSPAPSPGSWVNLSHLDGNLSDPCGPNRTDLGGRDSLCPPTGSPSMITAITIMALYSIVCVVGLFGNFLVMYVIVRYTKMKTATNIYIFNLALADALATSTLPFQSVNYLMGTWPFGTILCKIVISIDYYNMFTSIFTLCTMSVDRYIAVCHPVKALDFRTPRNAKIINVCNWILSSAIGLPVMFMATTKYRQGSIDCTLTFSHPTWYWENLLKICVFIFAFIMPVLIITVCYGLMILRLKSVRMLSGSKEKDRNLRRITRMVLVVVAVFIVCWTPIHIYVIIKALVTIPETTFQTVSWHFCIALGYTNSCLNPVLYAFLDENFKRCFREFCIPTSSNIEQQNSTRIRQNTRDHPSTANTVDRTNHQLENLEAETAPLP
Experiment: Affinity for the human μ-opiate receptor ([3H]-naloxone displacement, SPA)
Details: Table 2, Examples 11-161; test substance 1 μmole/l; inhibition of specific [3H]-naloxone binding; CHO-K1 membranes; read-out: μ-Opioid receptor, % inhibition [1 μM]
Use 90% as the dividing line for inhibition at 1 µM, with the line itself on the satisfied side and lower values as not satisfied.

Query: Please indicate if the recorded inhibition at 1 µM for COC(=O)C1(CSC)N=CN(C2CCCCC2)C1CC1CCC(C(c2ccc(F)cc2)N(C)C)CC1 (stereo not drawn) [Example 153] meets or exceeds 90%.
Response: satisfied

Query: Is inhibition at 1 µM at least 90%? Consider CCCN1C=NC(CSC)(C(=O)OC)C1CC1CCC(C(c2ccc(Cl)cc2)N(C)C)CC1 (stereo not drawn) [Example 63]
Response: satisfied

Query: Decide: inhibition at 1 µM of CCCC1(C(=O)OC)N=CN(C2CCCCC2)C1CC1CCC(C(c2ccc(F)cc2)N(C)C)CC1 (stereo not drawn) [Example 105] >= 90%?
Response: satisfied

Query: Does COC(=O)C1(Cc2ccc(Cl)cc2)N=CN(Cc2ccccc2)C1C1CCC(C(c2cccc(F)c2)N(C)C)CC1 (stereo not drawn) [Example 47] have a reported inhibition at 1 µM of at least 90%?
Response: not satisfied

Query: Is reported inhibition at 1 µM greater than or equal to 90% here: COC(=O)C1(CCSC)N=CN(Cc2ccccc2)C1CC1CCC(C(CCc2ccccc2)N(C)C)CC1 (stereo not drawn) [Example 145]
Response: not satisfied
